method: yeast display, Sf9 membrane polyspecificity reagent, FACS + sequencing; frameworks hold sequencing errors
property measured: polyreactivity (PSR sort gate)

// below: answered sequences
INSERT INTO results (sequence_text, reported_result) VALUES
  ('QVQLVESGGGLVQAGGSLRLSCAASGSILYFNAMGLYRQAPGKERELVATITSGGSTNYADSVKWRFTISRDNAKNTVYLQMNSQKPEDTAVYYSAADYSTRKADYWVQGTQVTVSS', 'low polyreactivity'),
  ('QVQLVESGGGLVQAGGSLRLSCAASGFIFRLYTMGLYRQAPGKERELVARITRGDSTNYADSVKGRFTISRDNAQNTVYLQMNCLYPEDTAVYYCAKLHRGLPYYSFYRGYYYWGQVTQVTVSS', 'low polyreactivity'),
  ('QVQLVESGGCLVQAGGSLRLSCAASGSIFPPYAMGWYIPAPGKERELVAAISRRGGSTYYADSVKGRFTISRDNAKNTVYLQMNSLKPEDTAVYYCAARGGQMEYWGQGTQVTVSS', 'high polyreactivity'),
  ('HVQLVESGGGLVQAGGSLRLSCAASGFTFYVYAMGWYRQAPGTERELVAAISRGGSTYYADSVKGRFTISRDNAKNTVYLQMNSLKPEDTAVYYCNRVPSVSSSKVRYSNGFDYWGQGTQVTVSS', 'low polyreactivity'),
  ('QVQLQESGGGLLQAGGSLRLSCAASGTISTDSYMGWYRQAPGKERKFVATIGYGGITYYADSVKGRSTISRDSAKNTVYLQMNSLKPEDTEVYYCAVNSYYPDHYWYWGRGTQVTVSS', 'high polyreactivity');

Input QVQLVESGGGLVQAGGSLRLSCAASRSTFYLNAMGWYRQAPGKERELVAAISSGGRTYYADSVKGRFTISRDNAKNTVYLQMNSLKPVDTAVYYCNAVRYLRGAYNYWGQGTQVTVSS , output reported polyreactivity (PSR sort gate).
high polyreactivity

Input QVQLVESGGGLVQAGGSLRLSCAASGTFGVYAMGWYRQSPGKERELVAVITDSGGTNYADSVKGRFTISRDNAKNTVYLQMNSLKPEDTAVYYCNTDAGDYYGENYWGQGTQVTVSS , output reported polyreactivity (PSR sort gate).
low polyreactivity

Input QVQLVESGGGLVQAGGSLRLSCAASGFTIRRYAMGWYRQAPGKESELVAAITTGGSTYYADSVKGRFTISRDNAKNTVYLQMNSLKPEDTAVYYCATDTYPYPLYYSPGAYGYWGQGTQVTVSS , output reported polyreactivity (PSR sort gate).
high polyreactivity

The values you see were collected from the nanobody polyreactivity screen of Harvey et al. (2022).
